Tested on: NCI-H69
ASSAY_NAME: Cell killing in NCI-H69 by CGT (CellTiter-Glo)
Format: cell-based
REPORTED_CONDITIONS: Homo sapiens, NCI-H69, 96 h
OBSERVED_PROPERTY: IC50 (nM)
The reply should be a number in nM, with the unit left off.

Per the reported NCI-H69 data, CC[C@@]1(O)C(=O)OCc2c1cc1n(c2=O)Cc2c-1nc1cc(F)c(C)c3c1c2[C@@H](NC(=O)CO)CC3 has IC50 of 7.53
